- test.system: SALL4 ZFC4 G921D (HT-SELEX) (Mus musculus, UniProt Q8BX22 870-940, G921D)
- Sequence: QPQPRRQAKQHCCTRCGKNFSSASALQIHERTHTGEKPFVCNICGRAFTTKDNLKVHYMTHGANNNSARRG
- procedure.summary: HT-SELEX; high values mean tight binding
- condition.label: protein: recombinant; vector His6-GST; dsDNA, one strand shown
quantity.name: binding signal (fold-change vs cycle 0)
Just the number in fold-change vs cycle 0, nothing appended.

Entry `CCATAG` needs its binding signal filled in; supply it.
0.94

Entry `TAGTAA` needs its binding signal filled in; supply it.
1.89

Entry `AACAGG` needs its binding signal filled in; supply it.
0.942

Entry `CATCAG` needs its binding signal filled in; supply it.
0.996

Entry `CCGTTC` needs its binding signal filled in; supply it.
0.511

Entry `GGGGAC` needs its binding signal filled in; supply it.
0.403

Entry `AGATGG` needs its binding signal filled in; supply it.
0.962

Entry `CAGTGA` needs its binding signal filled in; supply it.
0.957

Entry `CGCTGA` needs its binding signal filled in; supply it.
0.403

Entry `ATGGAA` needs its binding signal filled in; supply it.
1.36

Entry `AGGCTA` needs its binding signal filled in; supply it.
0.829

Entry `AAATGC` needs its binding signal filled in; supply it.
0.969

Entry `ACGGCG` needs its binding signal filled in; supply it.
0.177

Entry `ACAGAT` needs its binding signal filled in; supply it.
1.37

Entry `CAGGTA` needs its binding signal filled in; supply it.
0.973

Entry `CGACGA` needs its binding signal filled in; supply it.
0.415

Entry `GCCGTA` needs its binding signal filled in; supply it.
0.345

Entry `AAGAGT` needs its binding signal filled in; supply it.
1.48

Entry `AGTGGG` needs its binding signal filled in; supply it.
0.608

Entry `ATAAGA` needs its binding signal filled in; supply it.
1.92

Entry `CAGAGA` needs its binding signal filled in; supply it.
0.951

Entry `CCTGGA` needs its binding signal filled in; supply it.
0.647

Entry `AGTAAT` needs its binding signal filled in; supply it.
1.99

Entry `GGCCAA` needs its binding signal filled in; supply it.
0.358

Entry `AACGAA` needs its binding signal filled in; supply it.
1.24

Entry `ACCGTC` needs its binding signal filled in; supply it.
0.528

Entry `TCCACA` needs its binding signal filled in; supply it.
0.842

Entry `CACAGC` needs its binding signal filled in; supply it.
0.442

Entry `CCCAGC` needs its binding signal filled in; supply it.
0.297

Entry `AGCCGA` needs its binding signal filled in; supply it.
0.384

Entry `CATACA` needs its binding signal filled in; supply it.
1.32

Entry `TCAACA` needs its binding signal filled in; supply it.
1.3

Entry `GCGCCA` needs its binding signal filled in; supply it.
0.143

Entry `CGACAA` needs its binding signal filled in; supply it.
0.653

Entry `AATCTC` needs its binding signal filled in; supply it.
1.43

Entry `AACGAC` needs its binding signal filled in; supply it.
0.771

Entry `TCCAAA` needs its binding signal filled in; supply it.
1.17

Entry `CACCGA` needs its binding signal filled in; supply it.
0.523

Entry `GCTCGA` needs its binding signal filled in; supply it.
0.475

Entry `AACATT` needs its binding signal filled in; supply it.
1.79

Entry `AATCAA` needs its binding signal filled in; supply it.
1.81

Entry `CCGTCA` needs its binding signal filled in; supply it.
0.531

Entry `GTCTGA` needs its binding signal filled in; supply it.
0.945

Entry `AAAGGC` needs its binding signal filled in; supply it.
0.688

Entry `ATATGC` needs its binding signal filled in; supply it.
1.13

Entry `CGCCCG` needs its binding signal filled in; supply it.
0.128

Entry `GCGTTA` needs its binding signal filled in; supply it.
0.668

Entry `GATGGC` needs its binding signal filled in; supply it.
0.489

Entry `AAGCAA` needs its binding signal filled in; supply it.
1.23

Entry `ATGGCG` needs its binding signal filled in; supply it.
0.371

Entry `CCTGTA` needs its binding signal filled in; supply it.
0.974

Entry `AAATGA` needs its binding signal filled in; supply it.
1.75

Entry `CCCGGC` needs its binding signal filled in; supply it.
0.151

Entry `AAGGCA` needs its binding signal filled in; supply it.
0.777

Entry `TGTCAA` needs its binding signal filled in; supply it.
1.26

Entry `CTGACA` needs its binding signal filled in; supply it.
0.914

Entry `AAGTTC` needs its binding signal filled in; supply it.
1.36

Entry `CTAGTA` needs its binding signal filled in; supply it.
1.39

Entry `ACACGA` needs its binding signal filled in; supply it.
0.869

Entry `CGCCAA` needs its binding signal filled in; supply it.
0.316

Entry `GACGAA` needs its binding signal filled in; supply it.
0.79

Entry `CATTTC` needs its binding signal filled in; supply it.
1.23

Entry `GCACTA` needs its binding signal filled in; supply it.
0.725

Entry `ACGTCG` needs its binding signal filled in; supply it.
0.438

Entry `CAAGGA` needs its binding signal filled in; supply it.
1.01

Entry `ATGACA` needs its binding signal filled in; supply it.
1.39

Entry `CCCAAA` needs its binding signal filled in; supply it.
0.729

Entry `ACGGGA` needs its binding signal filled in; supply it.
0.583

Entry `GGGAAA` needs its binding signal filled in; supply it.
0.812

Entry `ATTTTA` needs its binding signal filled in; supply it.
1.98

Entry `AAAAAT` needs its binding signal filled in; supply it.
1.9

Entry `CCAGAG` needs its binding signal filled in; supply it.
0.625

Entry `ACTCAC` needs its binding signal filled in; supply it.
1.02

Entry `ACGTAC` needs its binding signal filled in; supply it.
0.862

Entry `AAAGCC` needs its binding signal filled in; supply it.
0.65

Entry `ACCATA` needs its binding signal filled in; supply it.
1.36

Entry `CGTATA` needs its binding signal filled in; supply it.
1.18

Entry `ACATTC` needs its binding signal filled in; supply it.
1.37

Entry `GAAATA` needs its binding signal filled in; supply it.
1.72

Entry `ACGGTC` needs its binding signal filled in; supply it.
0.553

Entry `CCCCCC` needs its binding signal filled in; supply it.
0.314

Entry `ACAACT` needs its binding signal filled in; supply it.
1.38

Entry `ATGCGA` needs its binding signal filled in; supply it.
0.689

Entry `GAATCC` needs its binding signal filled in; supply it.
0.989

Entry `GAACTA` needs its binding signal filled in; supply it.
1.37

Entry `GGCGCA` needs its binding signal filled in; supply it.
0.16

Entry `ACAGGA` needs its binding signal filled in; supply it.
1.01

Entry `CGGCCG` needs its binding signal filled in; supply it.
0.105

Entry `ATGGCC` needs its binding signal filled in; supply it.
0.413

Entry `AACACC` needs its binding signal filled in; supply it.
0.89

Entry `CAACCG` needs its binding signal filled in; supply it.
0.509

Entry `GCGGAC` needs its binding signal filled in; supply it.
0.239

Entry `GCGCGC` needs its binding signal filled in; supply it.
0.0747

Entry `CGGACA` needs its binding signal filled in; supply it.
0.472

Entry `AGGCGG` needs its binding signal filled in; supply it.
0.264

Entry `CCAACA` needs its binding signal filled in; supply it.
0.817

Entry `GAGCGC` needs its binding signal filled in; supply it.
0.196
